Assay: Solubility in pH 1.0, 4.5, 6.8 buffer solutions and pure water (supersaturated solution, 37° C., HPLC)
Format: physicochemical
Settings: ultrapure water, thermodynamic from solid; pure water, 37° C. water bath overnight; read-out: apparent solubility in pure water
MEASURE: solubility (mg/mL)
Write the answer as a number in mg/mL, unit excluded.

Exercise: Using the record for CCCCC(OC(C)=O)c1ccccc1C(=O)OCCN1CCCCC1 (centres unmarked) [DB-2] , report its solubility.
Solution: 11.7

Exercise: Using the record for CCCCC(OC(C)=O)c1ccccc1C(=O)OCCN(C)C (centres unmarked) [DB-1] , report its solubility.
Solution: 20
